B1: scFv; the commonest letter at each place (parent)
chain 1: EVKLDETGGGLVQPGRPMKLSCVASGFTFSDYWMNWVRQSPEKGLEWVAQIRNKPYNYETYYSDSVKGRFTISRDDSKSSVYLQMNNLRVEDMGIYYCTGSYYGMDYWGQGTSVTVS
chain 2: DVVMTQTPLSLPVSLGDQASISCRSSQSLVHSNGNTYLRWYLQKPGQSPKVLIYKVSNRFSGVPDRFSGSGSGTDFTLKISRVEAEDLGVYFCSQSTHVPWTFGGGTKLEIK

- Variants of: B1
- EXPERIMENT NOTES: Kd (Tite-Seq)
- RUN PARAMETERS: with fluorescein; format: scFv 4-4-20, heavy + light
Some variants, each annotated with its measured Kd.

Here are 5 variants together with their reported answers.
chain 1 G100P G109S
≥ 10 µM
chain 1 Y32G W33A
≥ 10 µM
chain 1 Y32I W36P
0.0391 µM
chain 1 S30H Y32C
9.5 µM
chain 1 Y103D G109R
≥ 10 µM

// query Recorded Kd for chain 1 S30P W33Q W36F , please?
// result ≥ 10 µM

// query Recorded Kd for chain 1 M105H , please?
// result ≥ 10 µM

// query Recorded Kd for chain 1 Y102G G104L , please?
// result ≥ 10 µM

// query Recorded Kd for chain 1 Y107N G109P , please?
// result ≥ 10 µM

// query Recorded Kd for chain 1 S101L Y103K , please?
// result ≥ 10 µM

// query Recorded Kd for chain 1 F29V M34E , please?
// result ≥ 10 µM
